Provenance of the data: patent US8569292B2

// values below are reported IC50
target: 11β-HSD1 (Homo sapiens); test: biochemical; settings: IC50 Range, Biological Test Example 1

# annotated cases, reported IC50 shown
1) C[C@@H](c1ccc(-c2ccc(C#N)cn2)cc1)N1CC[C@](CCCO)(c2ccc(F)cc2)OC1=O
< 100 nM
2) C[C@@H](c1ccc(-c2ccc(C(=O)NC3CC3)nn2)cc1)N1CC[C@](CC(C)(C)O)(c2ccccc2)OC1=O
< 100 nM
3) COc1ccc(-c2ccc([C@H](C)N3CC[C@](CCCO)(c4ccc(F)cc4)OC3=O)cc2)cn1
< 100 nM

q: Indicate the recorded IC50 value for this compound: `C[C@@H](c1ccc(-c2ccc(C(=O)NC(C)(C)C)cn2)cc1)N1CC[C@](CC(C)(C)O)(c2ccccc2)OC1=O`
a: < 100 nM

q: Indicate the recorded IC50 value for this compound: `Cc1nc(C)c(-c2ccc([C@H](C)N3CC[C@](CCC(N)=O)(c4ccc(F)cc4)OC3=O)cc2)s1`
a: < 100 nM

q: Indicate the recorded IC50 value for this compound: `COc1ccc(-c2ccc([C@H](C)N3CC[C@](CC(C)(C)O)(c4ccc(F)cc4)OC3=O)cc2)cn1`
a: < 100 nM

q: Indicate the recorded IC50 value for this compound: `COc1ccc(-c2ccc([C@H](C)N3CC[C@](CCC(N)=O)(c4ccc(F)cc4)OC3=O)cc2)cn1`
a: < 100 nM

* * *

target: 11β-HSD1 (Homo sapiens); assay: biochemical; conditions: Biological Test Example 1 IC50 (nM)
PROPERTY: IC50 (nM)

# annotated cases, reported IC50 shown
1) Cc1cc(-c2ccc([C@H](C)N3CC[C@](CCC(N)=O)(c4ccccc4)OC3=O)cc2)ccn1
1.4
2) C[C@@H](c1ccc(-c2ccc(C(C)(C)C)nn2)cc1)N1CC[C@](CC(C)(C)O)(c2ccccc2)OC1=O
1
3) C=CC[C@]1(c2ccc(F)cc2)CCN([C@@H](C)c2ccc(-c3sc(C)nc3C)cc2)C(=O)O1
1

[A] C[C@@H](c1ccc(-c2ncc(C(=O)NC(C)(C)C)s2)cc1)N1CC[C@](CC(C)(C)O)(c2ccccc2)OC1=O
[B] Cc1cc(-c2ccc([C@H](C)N3CC[C@](CCC(=O)O)(c4ccc(F)cc4)OC3=O)cc2)ccn1
[C] Cc1nccc(-c2ccc([C@H](C)N3CC[C@](CC(C)(C)O)(c4ccccc4)OC3=O)cc2)n1
[D] COc1cc(-c2ccc([C@H](C)N3CC[C@](CC(C)(C)O)(c4ccccc4)OC3=O)cc2)ccn1
q: Order the records by IC50, with each subsequent value no larger than the one before. Answer with the labels in sequence, matching the requested order.
a: B, A, C, D

[1] C[C@@H](c1ccc(-c2ccncn2)cc1)N1CC[C@](CCCO)(c2ccc(F)cc2)OC1=O
[2] Cc1cc(-c2ccc([C@H](C)N3CC[C@](CC(C)(C)O)(c4ccc(F)cc4)OC3=O)cc2)cc[n+]1[O-]
q: Returns: the label, 1 or 2 , whose recorded IC50 is the lower number. Let me know the label of the one you choose.
a: 1
(1: 1.1 nM, 2: 5.6 nM)

* * *

target: 11β-HSD1 (Homo sapiens); assay: biochemical; conditions: read-out: Average % inhibition at 100 nM
PROPERTY: inhibition at 0.1 µM (%)

# annotated cases, reported inhibition at 0.1 µM shown
1. C[C@@H](c1ccc(-c2ccc(C(N)=O)cn2)cc1)N1CC[C@](CCCO)(c2ccccc2)OC1=O [EXAMPLE 140]
98.7
2. C[C@@H](c1ccc(-c2ccncc2)cc1)N1CC[C@](CCC(N)=O)(c2ccc(F)cc2)OC1=O [EXAMPLE 74]
95.7

[P] C[C@@H](c1ccc(-c2ccccn2)cc1)N1CC[C@](CC(C)(C)O)(c2ccccc2)OC1=O [EXAMPLE 86]
[Q] C[C@@H](c1ccc(-c2cncc(C(N)=O)c2)cc1)N1CC[C@](CCCO)(c2ccc(F)cc2)OC1=O [EXAMPLE 71]
q: Could you kindly indicate whether P or Q has the higher inhibition at 0.1 µM value? Let me know the label of the one you choose.
a: P

* * *

This document collects IC50 values reported for CYP3A4 (Homo sapiens).
PROPERTY: IC50 (µM)

# annotated cases, reported IC50 shown
1) C[C@@H](c1ccc(-c2nncs2)cc1)N1CC[C@](CC(C)(C)O)(c2ccccc2)OC1=O
25.1
2) C[C@@H](c1ccc(-c2cscn2)cc1)N1CC[C@](CC(C)(C)O)(c2ccccc2)OC1=O
9.7

[1] C[C@@H](c1ccc(-c2ccc(C3CC3)nn2)cc1)N1CC[C@](CC(C)(C)O)(c2ccccc2)OC1=O
[2] Cc1cc(-c2ccc([C@H](C)N3CC[C@](CCC(N)=O)(c4ccc(F)cc4)OC3=O)cc2)ccn1
q: Could you kindly indicate whether 1 or 2 has the higher IC50 value? Let me know the label of the one you choose.
a: 1
(1: 19.6 µM, 2: 7.3 µM)

* * *

target: 11β-HSD1 (Homo sapiens); assay: biochemical; settings: read-out: Average % inhibition at 100 nM
PROPERTY: inhibition at 0.1 µM (%)

1) C[C@@H](c1ccc(-c2ccc(C(=O)NC3CC3)nn2)cc1)N1CC[C@](CC(C)(C)C#N)(c2ccccc2)OC1=O
91.6
2) C=CC[C@]1(c2ccc(F)cc2)CCN([C@@H](C)c2ccc(-c3sc(C)nc3C)cc2)C(=O)O1
90.9
3) Cc1cc(-c2ccc([C@H](C)N3CC[C@](CCC(N)=O)(c4ccccc4)OC3=O)cc2)ccn1
97.8
4) Cc1cc(-c2ccc([C@H](C)N3CC[C@](CCN(C)S(C)(=O)=O)(c4ccccc4)OC3=O)cc2)ccn1
93.9
5) Cc1cc(-c2ccc([C@H](C)N3CC[C@](CCCO)(c4ccccc4)OC3=O)cc2)cc(C)[n+]1[O-]
93.1
6) Cc1cc(-c2ccc([C@H](C)N3CC[C@](CCNS(C)(=O)=O)(c4ccccc4)OC3=O)cc2)ccn1
98.5
7) Cc1nccc(-c2ccc([C@H](C)N3CC[C@](CCCO)(c4ccc(F)cc4)OC3=O)cc2)n1
96.7
8) C[C@@H](c1ccc(-c2ncc(C(C)(C)O)cn2)cc1)N1CC[C@](CC(C)(C)O)(c2ccccc2)OC1=O
83.8
9) C[C@@H](c1ccc(-c2ncccc2C#N)cc1)N1CC[C@](CC(C)(C)O)(c2ccccc2)OC1=O
94.5
10) C[C@@H](c1ccc(-c2ccc(C(=O)NC(C)(C)C)cn2)cc1)N1CC[C@](CC(C)(C)C#N)(c2ccccc2)OC1=O
96.8
11) C[C@@H](c1ccc(-c2ncccn2)cc1)N1CC[C@](CCCO)(c2ccc(F)cc2)OC1=O
92.4
12) COc1ccc(-c2ccc([C@H](C)N3CC[C@](CCCNS(C)(=O)=O)(c4ccc(F)cc4)OC3=O)cc2)cn1
101
13) C[C@@H](c1ccc(-c2ccncc2)cc1)N1CC[C@](CCC(N)=O)(c2ccccc2)OC1=O
94.3
14) CC(=O)N(C)CCC[C@]1(c2ccccc2)CCN([C@@H](C)c2ccc(-c3ccnc(C)c3)cc2)C(=O)O1
94.3
15) C[C@@H](c1ccc(-c2ccnc(N)c2)cc1)N1CC[C@](CCCO)(c2ccccc2)OC1=O
98.6

* * *

target: 11β-HSD1 (Homo sapiens, UniProt P28845); experiment: biochemical; details: read-out: Average % inhibition at 100 nM
Sequence (P28845 whole entry): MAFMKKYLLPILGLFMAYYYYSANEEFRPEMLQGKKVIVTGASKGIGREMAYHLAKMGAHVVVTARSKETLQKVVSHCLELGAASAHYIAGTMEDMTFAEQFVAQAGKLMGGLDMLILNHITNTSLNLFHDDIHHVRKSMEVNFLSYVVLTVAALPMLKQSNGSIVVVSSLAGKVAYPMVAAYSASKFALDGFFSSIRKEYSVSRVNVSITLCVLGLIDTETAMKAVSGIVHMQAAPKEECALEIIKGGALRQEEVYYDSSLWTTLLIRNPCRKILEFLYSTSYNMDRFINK
PROPERTY: inhibition at 0.1 µM (%)

1) C[C@@H](c1ccc(-c2ncc(C(=O)NC(C)(C)C)s2)cc1)N1CC[C@](CC(C)(C)O)(c2ccccc2)OC1=O
89.3

[a] C[C@@H](c1ccc(-c2ccccn2)cc1)N1CC[C@](CCO)(c2ccccc2)OC1=O
[b] CNC(=O)c1cncc(-c2ccc([C@H](C)N3CC[C@](CCCO)(c4ccc(F)cc4)OC3=O)cc2)c1
q: Returns: the label, a or b , whose recorded inhibition at 0.1 µM is the lower number. Let me know the label of the one you choose.
a: b

* * *

biological target: 11β-HSD1 (Homo sapiens, UniProt P28845); experiment: biochemical; details: Biological Test Example 1 IC50 (nM)
PROPERTY: IC50 (nM)

# annotated cases, reported IC50 shown
1) Cc1ccc(-c2ccc([C@H](C)N3CC[C@](CC(C)(C)C#N)(c4ccccc4)OC3=O)cc2)nn1 [EXAMPLE 166]
1
2) CC(C)[C@@]1(CC(C)(C)O)CCN([C@@H](C)c2ccc(-c3cnc(C(=O)NC4CC4)nc3)cc2)C(=O)O1 [EXAMPLE 199]
63.5
3) C[C@@H](c1ccc(-c2ccccn2)cc1)N1CC[C@](CCO)(c2ccccc2)OC1=O [EXAMPLE 85]
0.9
4) C[C@@H](c1ccc(-c2ccc(S(C)(=O)=O)cn2)cc1)N1CC[C@](CC(C)(C)O)(c2ccccc2)OC1=O [EXAMPLE 186]
0.9
5) COc1ccc(-c2ccc([C@H](C)N3CC[C@](CCC(N)=O)(c4ccccc4)OC3=O)cc2)cn1 [EXAMPLE 52]
1.1
6) C[C@@H](c1ccc(-c2cncc(Cl)c2)cc1)N1CC[C@](CCCO)(c2ccc(F)cc2)OC1=O [EXAMPLE 69]
0.6

[P] C[C@@H](c1ccc(-c2ccn(C)n2)cc1)N1CC[C@](CCCO)(c2ccccc2)OC1=O [EXAMPLE 100]
[Q] Cc1nnc(CC[C@]2(c3ccccc3)CCN([C@@H](C)c3ccc(-c4ccc(C#N)cn4)cc3)C(=O)O2)o1 [EXAMPLE 145]
q: Returns: the label, P or Q , whose recorded IC50 is the lower number. Let me know the label of the one you choose.
a: P
(P: 1.2 nM, Q: 32.8 nM)
